Ref: PubChem BioAssay AID1159580

test: chemical genetic growth profiling, strain panel (AID 1159580);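 further: tested at 20 µM; growth read once vehicle control cultures reached saturation at 30 °C; lower values mean less growth of the strain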; conditions: S. cerevisiae deletion strains, growth OD, locus YKL085W, strain MDH1 (second series)
The campaign covered roughly 5,500 compounds. About 2,000 (36%) were called active. Another 18% or so got no clear call; they are omitted. No stated cut-off is given here; in the data, active means normalized growth mostly below about 0.91 (no sharp cut-off); inconclusive means no clear call, values can overlap the other calls; inactive means mostly above about 0.92. Some of the results follow.
Outcomes you can answer with include only these: y (active), n (inactive)

Here's what some known entries look like.
compound	assigned-category
Clc1ccc(Cl)cc1	n
COc1cccc2c1cc([N+](=O)[O-])c1c(C(=O)O)cc3c(c12)OCO3	n
O=c1c2ccccc2oc2ccc(O)cc12	n

Ask | Recorded test outcome, item COc1c(O)cccc1O
Reply | n

Ask | Recorded test outcome, item NCCc1cccc(O)c1
Reply | n

Ask | Recorded test outcome, item COc1ccc(-c2cc(=O)c3c(OC)cccc3o2)cc1
Reply | n

Ask | Recorded test outcome, item Cn1c(=O)c2[nH]c(C3CCCC3)nc2n(C)c1=O
Reply | n

Ask | Recorded test outcome, item CC(=O)O[C@H]1C[C@H](O[C@H]2[C@@H](O)C[C@H](O[C@H]3[C@@H](O)C[C@H](O[C@H]4CC[C@@]5(C)C(CCC6C5C[C@@H](O)[C@]5(C)[C@@H](C7=CC(=O)OC7)CC[C@]65O)C4)O[C@@H]3C)O[C@@H]2C)O[C@H](C)[C@H]1O[C@@H]1O[C@H](CO)[C@@H](O)[C@H](O)[C@H]1O (stereo partly specified)
Reply | n

Ask | Recorded test outcome, item COc1cc([C@@H]2c3cc4c(cc3C(O[C@@H]3O[C@@H]5CO[C@@H](c6cccs6)OC5[C@H](O)[C@H]3O)C3COC(=O)[C@@H]32)OCO4)cc(OC)c1O (stereo partly specified)
Reply | n

Ask | Recorded test outcome, item CC(=O)CC(c1ccccc1)c1c(O)c2ccccc2oc1=O (stereo unspecified)
Reply | n

Ask | Recorded test outcome, item COc1ccc(-c2coc3cc(OC)cc(O)c3c2=O)cc1
Reply | n

Ask | Recorded test outcome, item CC(N)Cc1ccc(O)cc1 (stereo unspecified)
Reply | n

Ask | Recorded test outcome, item CCCCCCc1ccc(O)cc1O
Reply | n

Ask | Recorded test outcome, item O=c1oc2ccccc2c(O)c1Cc1c(O)c2ccccc2oc1=O
Reply | y

Ask | Recorded test outcome, item CC(=O)O[C@@H]1CC2C(C)(C)[C@H](O)C[C@H](O)[C@]2(C)C2CC[C@@]3(C)[C@H](c4ccoc4)OC(=O)[C@H]4O[C@]43[C@@]21C (stereo partly specified)
Reply | n

Ask | Recorded test outcome, item CN(C)CC/C=C1/c2ccccc2COc2ccccc21
Reply | n

Ask | Recorded test outcome, item COc1cccc(-c2cc(=O)c3ccc(OC)cc3o2)c1
Reply | y

Ask | Recorded test outcome, item O=C(O)/C=C(\CC(=O)O)C(=O)O
Reply | n
